target: Factor Xa (bovine); test: primary screen, binary call; higher = more effect of the substance; set-up: screenings were carried out in duplicate in one independent experiment; details: 200 µM; call rule not given here
Sequence (P00743 41-180 limits assumed): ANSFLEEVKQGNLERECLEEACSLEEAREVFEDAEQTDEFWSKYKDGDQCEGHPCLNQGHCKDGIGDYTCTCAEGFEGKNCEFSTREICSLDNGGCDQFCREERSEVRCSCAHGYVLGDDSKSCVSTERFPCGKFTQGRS
Sequence (P00743 234-492 limits assumed): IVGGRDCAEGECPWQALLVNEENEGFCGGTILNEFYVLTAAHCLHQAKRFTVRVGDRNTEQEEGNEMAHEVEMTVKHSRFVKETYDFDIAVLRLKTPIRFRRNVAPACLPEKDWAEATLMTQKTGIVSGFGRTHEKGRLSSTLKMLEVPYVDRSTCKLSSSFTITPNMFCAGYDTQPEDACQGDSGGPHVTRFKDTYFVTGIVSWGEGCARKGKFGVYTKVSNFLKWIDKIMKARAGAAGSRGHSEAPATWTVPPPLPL
Give one outcome, nothing more. List: T (active), F (inactive)

Request: How did this test come out for CC1(C)OC(=O)c2cc(Br)c(O)cc2O1 ?
Response: F

Request: GET /call?item= FC1(F)CNCC(F)(F)O1 returns the recorded outcome of this test.
Response: F

Request: Test call for this molecule, please: CCN(CC)c1cccc(C)c1
Response: F

Request: I would be grateful if you could indicate the recorded call for CN(C)c1cc(CN)ccn1 .
Response: F

Request: Any idea what this test logged for O=C(Nc1ccccc1)C1CC1 ?
Response: F

Request: Tell me the assay call for CCc1ccc(NC2=NCCCS2)cc1 please.
Response: F

Request: Lab log entry: CC(CN)N1CCc2sccc2C1 (stereo not drawn) — outcome as called in the assay?
Response: F

Request: Assay result, entry c1ccc2oc(C3CCCNC3)nc2c1 (stereo not drawn) — outcome?
Response: F

Request: # lookup: test call for O=C1CCN(c2ccncc2)CC1
Response: F

Request: Hi team, can someone confirm the assay call for NC(c1ccccc1)c1ccccc1 ?
Response: F

Request: Could you kindly confirm the outcome this assay logged for O=C(O)C1CCN(c2ncccn2)CC1 ?
Response: F

Request: Test call, this molecule: COc1cccc(NC2=NCCCCC2)c1
Response: F

Request: Please share the test call associated with O=C(c1ccncc1)N1CCNCC1 .
Response: F

Request: Please indicate how the test categorized CC1C(=O)NC(=O)N1c1ccc(Cl)cc1 (stereo not drawn) .
Response: F

Request: Field: outcome | Entry: Oc1ccc(-n2cncn2)cc1
Response: F

Request: Please state the recorded outcome for this molecule: Fc1ccc(CC2CCCNC2)cc1 (stereo not drawn)
Response: F

Request: Outcome? CC(=O)c1ccc2c(c1)CCCN2
Response: F

Request: Tell me the assay call for Fc1ccc2c(C3CCNCC3)c[nH]c2c1 please.
Response: F

Request: Called result for Cc1cc(C)c2c(=O)[nH]n(C)c2n1
Response: F

Request: In this assay, the call recorded for N#Cc1ccc2ncsc2c1 was what?
Response: F

Request: Which outcome was entered for the molecule Clc1ccc2nnnn2n1 in this test?
Response: F

Request: Identify the outcome logged in this assay for the molecule shown: COc1ccccc1C1CCNCC1
Response: F

Request: Hi, do you know how O=C1CCCc2occc21 came out in this test?
Response: F

Request: I would be grateful if you could indicate the recorded call for NC1CCc2ccccc21 (stereo not drawn) .
Response: F

Request: Identify the outcome logged in this assay for the molecule shown: CC1CCc2sc(C(=O)O)cc2C1 (stereo not drawn)
Response: F

Request: Dear all, I need the recorded test outcome for O=C(NC1CC1)c1ccccc1O , thank you.
Response: F

Request: What classification did CC(=O)c1sc(-c2ccc(O)cc2)nc1C end up with in this test?
Response: T

Request: Record request — test call for O=c1[nH]ncc2c1oc1ccccc12
Response: F

Request: GET /call?item= Cc1nc(-c2ccccc2)cs1 returns the recorded outcome of this test.
Response: F

Request: Fill in: this test's call for Cc1cc(N)no1 is ___
Response: F

Request: What outcome does the record of this test show for CS(=O)(=O)Nc1ccc(C(=O)O)cc1 ?
Response: F

Request: What outcome does the record of this test show for COc1ccccc1N1CCNCC1 ?
Response: F

Request: Hi, do you know how N#CC1CCS(=O)(=O)C1 (stereo not drawn) came out in this test?
Response: F
